- experiment-summary: CREB reporter modulators without forskolin, primary screen, cell-based, PC12, CRE-LacZ reporter, unstimulated (AID 1145)
- condition-set: no forskolin, luminescence, 4.5 h, higher = more signal, called active from +8 up or from −8 down
endpoint-name: z-score
Field format: numeric only.

Consider the following illustrative entries.
| compound | recorded-number |
| --- | --- |
| C=C(COC)/C(=C/C[C@@H](OC(=O)c1ccncc1)c1ccc(OCCO)cc1)c1cnc2ccccc2c1 | 7.95 |
| CCCCN1CC=CC23O[C@@H]4/C=C\CCC(C)OC(=O)C4[C@H]2C(=O)N(CCCCCCO)[C@@H]3C1=O (stereo partly drawn) | 0.61 |
| CCCCC(CC)C(O)C1C=CC2C(=O)N(c3ccccc3)C(=O)C2N1Nc1ccc([N+](=O)[O-])cc1 (stereo not drawn) | 0.285 |
| COCCOC(=O)N1C(=O)[C@@]2(c3cc(C#CC4(O)CCCCCC4)ccc31)[C@H](C(=O)N1CCCCCCC1)[C@H]1C(=O)O[C@H](c3ccccc3)[C@H](c3ccccc3)N1[C@@H]2c1ccc(OCCO)cc1 | 0.623 |
| COCC(=C=CC[C@H](O)c1cccc(OCCO)c1)C[C@H](O)c1ccccn1 | 1.34 |
| C=C1C2CC3C(=C4C(CO[C@@H]4[C@H]4CCCN4S(=O)(=O)c4ccccc4[N+](=O)[O-])C4C(=O)N(C)C(=O)C34)CC2C(=O)N1C (stereo partly drawn) | 3.21 |
| COc1ccc(C(O)C2C=CC3C(=O)N(C)C(=O)C3N2N2CCCCC2)cc1 (stereo not drawn) | 0.639 |
| COCCOC(=O)N1C(=O)[C@@]2(c3cc(C#CC4=CCCCC4)ccc31)[C@H](c1ccccc1OCCO)N1[C@H](c3ccccc3)[C@H](c3ccccc3)OC(=O)[C@H]1[C@@H]2C(=O)N1CCc2cc(OC)c(OC)cc2C1 | 1.03 |

Input line: For the compound CC(C)CN1C(=O)[C@@]2(c3ccc([N+](=O)[O-])cc3)CC(=O)N(CC34CC5CC(CC(C5)C3)C4)[C@@H]2c2ccc(CO)cc21 , report z-score.
Output line: -0.348

Input line: For the compound COCCOC(=O)N1C(=O)[C@@]2(c3cc(C#CC4(O)CCCCCC4)ccc31)[C@H](C(N)=O)[C@H]1C(=O)O[C@H](c3ccccc3)[C@H](c3ccccc3)N1[C@@H]2c1ccccc1OCCO , report z-score.
Output line: 0.0921

Input line: For the compound CC(C)C(=C=CC[C@@H](O)c1ccccc1OCCO)C[C@@H](O)COCc1ccccc1 , report z-score.
Output line: 18.5

Input line: For the compound CN(C)C(=O)[C@@]1(Cc2ccccc2N=[N+]=[N-])COC(c2ccc(OCCCO)cc2)=N1 , report z-score.
Output line: 0.942

Input line: For the compound CCOC(=O)C[C@H]1[C@H](OC(=O)c2ccc(-c3ccccc3)cc2)[C@@H](NC(=O)c2ccc3ccccc3n2)c2cc(OCCCO)ccc2N1C(=O)c1ccccc1 , report z-score.
Output line: -0.477

* * *

- experiment-summary: inhibitors of hydroxyurea-induced Chk1 phosphorylation, primary screen, imaging, HeLa, phospho-Chk1 antibody, percent positive cells (AID 1186)
- condition-set: hydroxyurea-induced phospho-Chk1 immunofluorescence imaging, higher = more signal
endpoint-name: z-score
Field format: numeric only.

Consider the following illustrative entries.
| compound | z-score |
| --- | --- |
| Cc1c(NC(=O)/C(C#N)=C/C=C/c2ccc(N(C)C)cc2)c(=O)n(-c2ccccc2)n1C | 0.348 |
| NC(=O)N1C(=O)C2C(C1=O)C1C=C(c3ccc(CO)cc3)C2C(C2CC2)N1Cc1sc2ccccc2c1Cl (stereo not drawn) | -0.0244 |
| COc1ccc([Si](C)(C)[C@H]2[C@H](CCn3cc([C@H](O)c4ccccc4)nn3)O[C@@]3(C(=O)N(Cc4cccc(N5C(=O)c6cccc7cccc5c67)c4)c4ccccc43)[C@@H]2C)cc1 | 0.169 |
| COC(=O)c1c(CC[C@@H](CO)NC(=O)N[C@H](Cn2cc(-c3ccccc3C)nn2)C(C)C)oc(C(C)=O)c1C(=O)OC | 1.16 |
| O=C1NCC(=O)N2[C@@H]1C[C@@H](C(=O)O)[C@H]2c1ccc(O)cc1 | 0.0155 |
| CCOC(=O)C[C@H]1[C@H](OC(=O)Cc2ccc3c(c2)OCO3)[C@@H](NC(=O)Cc2ccc(OC)cc2)c2cc(OCCCO)ccc2N1C(=O)c1ccccc1 | -0.543 |
| O=C1O[C@@H](c2ccccc2)[C@@H](c2ccccc2)N2[C@@H](c3ccccc3OCCO)[C@]3(C(=O)Nc4ccc(C#CCCO)cc43)[C@@H](C(=O)N3CCN(c4ncccn4)CC3)[C@H]12 | -0.0995 |
| CCOC(=O)[C@H]1C/C=C/C[C@H](C(=O)OCC)C(=O)O[C@H]2[C@@H](OC)O[C@H](CO)[C@@H](OC(=O)Nc3ccc(OC)cc3)[C@@H]2OC1=O | 0.178 |
| C=CCC(OC(C)=O)[C@@H]1[C@@H](N(Cc2ccc(-c3ccccc3)cc2)C(=O)c2cccc3ccccc23)c2cc(OCCCO)ccc2N1C(=O)Cc1ccc2ccccc2c1 (stereo partly drawn) | -0.8 |
| O=C1O[C@@H](c2ccccc2)[C@@H](c2ccccc2)N2[C@@H](c3ccccc3OCCO)[C@]3(C(=O)Nc4ccc(C#CC5=CCCCC5)cc43)[C@@H](C(=O)NC[C@H](O)c3ccccc3)[C@H]12 | -0.336 |

Input line: For the compound CCOC(=O)C[C@H]1[C@H](OC(=O)c2ccc(-c3ccccc3)cc2)[C@@H](NC(=O)c2ccc3ccccc3n2)c2cc(OCCCO)ccc2N1C(=O)c1ccccc1 , report z-score.
Output line: 0.188

Input line: For the compound CN1C(=O)[C@@]2(CCS(=O)(=O)c3ccccc3)N=C(c3ccc(OCCCO)cc3)O[C@H]2c2ccccc21 , report z-score.
Output line: -0.262

Input line: For the compound C=CC[C@@]12N=C(c3ccc(OCCCO)cc3)O[C@@H]1c1ccccc1N(CCS(=O)(=O)c1ccccc1)C2=O , report z-score.
Output line: -0.641

* * *

- experiment-summary: binders of probe aFGF10 on microarray, primary screen, stem cell growth factor project, biochemical, small-molecule microarray, fluorescence 635/667 (AID 1071);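 note: score merges 667 nm spot intensity and signal to noise from triplicate slides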
- condition-set: higher = more signal
endpoint-name: composite z-score

| molecule | composite z-score |
| --- | --- |
| COC(=O)C(CC#Cc1ccc2c(c1)[C@]1(C(=O)N2)[C@H](C(=O)O)[C@H]2C(=O)O[C@H](c3ccccc3)[C@H](c3ccccc3)N2[C@@H]1c1ccccc1OCCO)C(=O)OC | 1.12 |
| COCCOC(=O)N1C(=O)[C@@]2(c3cc(C#Cc4ccc(OC)cc4)ccc31)[C@H](C(=O)N1CCCCCCC1)[C@H]1C(=O)O[C@H](c3ccccc3)[C@H](c3ccccc3)N1[C@@H]2c1ccc(O)cc1 | 0.479 |
| O=C1O[C@@H](c2ccccc2)[C@@H](c2ccccc2)N2[C@@H](c3ccccc3OCCO)[C@]3(C(=O)Nc4ccc(C#CCCO)cc43)[C@@H](C(=O)Nc3nc4ccccc4s3)[C@H]12 | 1.07 |
| O=C1OCCC=C[C@H]2OC34C=CCN(c5ccc(Cl)cc5)C(=O)[C@H]3N(CCCCCO)C(=O)[C@@H]4C12 (stereo partly drawn) | -0.112 |
| COCCCNC(=O)[C@]1(CCC(=O)OC(C)(C)C)N=C(c2ccc(OCCCO)cc2)O[C@@H]1c1ccccc1 | 0.578 |

Input line: For the molecule COCCCNC(=O)[C@@]1(Sc2ccc(C)cc2)CC(=O)N(Cc2cc(C(F)(F)F)cc(C(F)(F)F)c2)[C@@H]1c1ccc(CO)cc1 , report composite z-score.
Output line: -0.29

Input line: For the molecule CC(C)(C)OC(=O)CC[C@]1(C(=O)O)N=C(c2ccc(OCCCO)cc2)O[C@H]1c1ccccc1 , report composite z-score.
Output line: 0.19

Input line: For the molecule CC(C)CNC(=O)[C@@H]1c2ccccc2C(=O)N(Cc2cc(F)cc(C(F)(F)F)c2)[C@H]1c1ccc(CO)cc1 , report composite z-score.
Output line: 0.207

Input line: For the molecule O=C1O[C@H](c2ccccc2)[C@H](c2ccccc2)N2[C@H]1[C@@H](C(=O)O)[C@]1(C(=O)Nc3ccccc31)[C@H]2c1ccc(O)cc1 , report composite z-score.
Output line: 0.338

Input line: For the molecule COc1cc(CO)cc(I)c1O[C@H]1C=C(C(=O)NCCO)C[C@@H](NCc2ccccc2F)[C@@H]1O , report composite z-score.
Output line: 1.17

Input line: For the molecule CC(C)C(O)C1C=CC2C(=O)N(C)C(=O)C2N1Nc1ccccc1 (stereo not drawn) , report composite z-score.
Output line: 0.914

Input line: For the molecule COc1ccc(C(O)C2C=CC3C(=O)N(Cc4ccccc4)C(=O)C3N2n2cnnc2)c2ccccc12 (stereo not drawn) , report composite z-score.
Output line: -0.522

Input line: For the molecule C=CC[C@@]12N=C(c3ccc(OCCCO)cc3)O[C@@H]1c1ccccc1N(CCS(=O)(=O)c1ccccc1)C2=O , report composite z-score.
Output line: 0.0692

Input line: For the molecule CC(C)C(O)C1C=CC2C(=O)N(C)C(=O)C2N1N(c1ccccc1)c1ccccc1 (stereo not drawn) , report composite z-score.
Output line: -0.577

Input line: For the molecule CC(C)(C)OC(=O)CC[C@@]1(C(=O)O)N=C(c2ccc(OCCCO)cc2)O[C@@H]1c1ccccc1 , report composite z-score.
Output line: 0.13

Input line: For the molecule COc1cc2c(cc1OC)CN(C(=O)[C@H]1[C@@H]3C(=O)O[C@@H](c4ccccc4)[C@@H](c4ccccc4)N3[C@@H](c3ccc(OCCO)cc3)[C@]13C(=O)Nc1ccc(C#CCCO)cc13)CC2 , report composite z-score.
Output line: 0.844

Input line: For the molecule CC(C)OC(=O)CC(=O)CC(O)c1cccc(C#N)c1 (stereo not drawn) , report composite z-score.
Output line: 0.535

Input line: For the molecule COC(=O)[C@@]1(Cc2ccccc2)[C@H]2c3cc(C(=O)N4CCCC4)n(Cc4ccsc4Br)c3C[C@H]2CN1C(=O)c1ccccc1 , report composite z-score.
Output line: 0.682

Input line: For the molecule COc1ccc([Si](C)(C)[C@H]2[C@H](CCn3cc(CCO)nn3)O[C@@]3(C(=O)N(Cc4ccc(N5C(=O)c6cccc7cccc5c67)cc4)c4ccccc43)[C@@H]2C)cc1 , report composite z-score.
Output line: 0.53

Input line: For the molecule C=C1C2CC3C(=C4C(CO[C@@H]4[C@H]4CCCN4S(=O)(=O)c4ccccc4[N+](=O)[O-])C4C(=O)N(C)C(=O)C34)CC2C(=O)N1C (stereo partly drawn) , report composite z-score.
Output line: 0.36

Input line: For the molecule COc1ccccc1CN1C(=O)c2ccccc2[C@](Cc2ccccc2I)(C(=O)NC(C)C)[C@@H]1c1ccc(CO)cc1 , report composite z-score.
Output line: 0.732

Input line: For the molecule CO[C@H]1O[C@H](CO)[C@@H](OC(=O)Nc2ccc(Oc3ccccc3)cc2)[C@H](OC(=O)Nc2ccccc2-c2ccccc2)[C@@H]1OC(=O)Nc1ccccc1-c1ccccc1 , report composite z-score.
Output line: 1.02

Input line: For the molecule O=C(CS)NCCCCCCNC(=O)[C@H]1C[C@H]2C(=O)N[C@@H](Cc3ccccc3)C(=O)N2[C@H]1c1cccc(OCCO)c1 , report composite z-score.
Output line: 1.16

Input line: For the molecule CC=CC(O)C1C=CC2C(=O)N(c3ccccc3)C(=O)C2N1Nc1ccccc1 (stereo not drawn) , report composite z-score.
Output line: 1.02

Input line: For the molecule COc1ccc(NN2C(C(O)c3ccccn3)C=CC3C(=O)N(C4CCCCC4)C(=O)C32)cc1 (stereo not drawn) , report composite z-score.
Output line: 0.467
